methodNotes: Acute intervention: nutrikinetics of plasma metabolites after ingestion of L. citriodora extract (untargeted HPLC-ESI-QTOF-MS)
conditionsUsed: 10 h after L. citriodora extract
Protocol: A total of 25 healthy individuals participated, with an average age of 27 ± 9 years and a mean body mass index (BMI) of 23 ± 3 kg/m^2. […] Metabolite nutrikinetics were studied using PKSolver, an add-in program for pharmacokinetic data analysis in Microsoft Excel. The time to reach the maximum concentration (observed Tmax) was calculated for each significant metabolite. As an untargeted metabolomic approach was used to detect the circulating metabolites, these were not quantified. […]
Counter-ions that a name gives are not always drawn.
// returns -1 unless mean chromatographic area in plasma, T10 is strictly below 30, in which case 1

Some entries whose results are on file:
COc1cc(/C=C/C(=O)O)ccc1O[C@@H]1O[C@H](C(=O)O)[C@@H](O)[C@H](O)[C@H]1O [ferulic acid 4-O-glucuronide]	-1
COc1cc(CCO)ccc1OS(=O)(=O)O [homovanillyl alcohol sulfate]	-1
CC1=CC(=O)CC(C)(C)C1(O)/C=C/C(C)=C/COC1OC(CO)C(O)C(O)C1O (single isomer, unassigned; isomer 3) [abscisic alcohol 11-glucoside isomer 3, abscisic alcohol 11-glucoside]	1
COc1cc(C(=O)O)ccc1OS(=O)(=O)O [vanillic acid 4-O-sulfate isomer 2, vanillic acid 4-O-sulfate]	1
COc1cc(C(=O)O)ccc1OS(=O)(=O)O [vanillic acid 4-O-sulfate isomer 1, vanillic acid 4-O-sulfate]	-1
C=C(C)[C@@H]1[C@H]2OC(=O)[C@@H]1[C@]1(O)C[C@H]3O[C@]34C(=O)O[C@H]2[C@]14C	1

Please look at the following molecule next.
For this molecule, is mean chromatographic area in plasma, T10 lower than 30? COc1cc(CCCO)ccc1OC1OC(CO)C(O)C(O)C1O (single isomer, unassigned; isomer 2) [dihydroconiferin isomer 2, dihydroconiferin] 1

* * *

methodNotes: Acute intervention: nutrikinetics of plasma metabolites after ingestion of L. citriodora extract (untargeted HPLC-ESI-QTOF-MS)
conditionsUsed: in vivo
Counter-ions that a name gives are not always drawn.
endpointName: mean chromatographic area in plasma, T0.5
Answers are plain numbers.

Answered cases to consult:
O=C(O)C=Cc1ccc(OS(=O)(=O)O)c(O)c1 (single isomer, unassigned; isomer 1) [caffeic acid 4-sulfate isomer 1, caffeic acid 4-sulfate]	21
O=C(O)CCCCCCCCC(=O)O [sebacic acid isomer, sebacic acid]	22
COc1cc(CC(=O)O)ccc1OS(=O)(=O)O [homovanillic acid sulfate isomer 1, homovanillic acid sulfate]	0
O=C(O)C=Cc1ccc(OS(=O)(=O)O)c(O)c1 (single isomer, unassigned; isomer 2) [caffeic acid 4-sulfate isomer 2, caffeic acid 4-sulfate]	0

// next item, mean chromatographic area in plasma, T0.5 requested
Sample O=C(O)CCCCCCCCC(=O)O [sebacic acid Isomer 2, sebacic acid] — what was its mean chromatographic area in plasma, T0.5? 15

* * *

methodNotes: Acute intervention: nutrikinetics of plasma metabolites after ingestion of O. europaea extract (untargeted HPLC-ESI-QTOF-MS)
conditionsUsed: 2 h after O. europaea extract
Please go through the items and note down their mean chromatographic area in plasma, T2.
Numbers only.

State recorded mean chromatographic area in plasma, T2 for all listed compounds.
1. CC(=O)Oc1cc2c(c(C)c1OC(C)=O)CC=C1[C@@]2(C)CC[C@@]2(C)C3C[C@](C)(C(=O)O)CC[C@]3(C)CC[C@]12C (stereo partly drawn) [dihydrocelastryl diacetate]
2. COc1cc(C(=O)O)cc(OC)c1OC [eudesmic acid]

1: 150; 2: 28

Could you report mean chromatographic area in plasma, T2 for every entry in the following list?
1. COC(=O)C1=CO[C@H](O)/C(=C/CO)[C@@H]1CC(=O)OCCc1ccc(O)c(O)c1 [10-hydroxyoleuropein aglycone]
2. OC[C@H]1O[C@@H](OCc2ccoc2)[C@H](O)[C@@H](O)[C@@H]1O (single isomer, unassigned; isomer 2) [3-furanmethanol glucoside isomer 2, 3-furanmethanol glucoside]
3. Cc1cccc(O)c1O [3-methylcatechol]
4. C[C@]12CC[C@@H](O[C@@H]3O[C@H](C(=O)O)[C@@H](O)[C@H](O)[C@H]3O)C[C@@H]1CC[C@@H]1[C@@H]2C(=O)C[C@@]2(C)[C@H]1CC[C@]2(O)[C@@H](O)CO [cortolone-3-glucuronide]
5. O=C(O)CCCCCCCCC(=O)O [decanedioic acid isomer 1, decanedioic acid]

15
961
50
0
232

Hi! Can you tell me mean chromatographic area in plasma, T2 for each of these compounds?
1. O=C(/C=C/C1=CC(=O)C(=O)C=C1)OC1CC(O)(C(=O)O)CC(O)C1O (stereo not drawn) [chlorogenoquinone]
2. COc1cc(C(=O)O)ccc1OS(=O)(=O)O [vanillic acid 4-O-sulfate isomer 1, vanillic acid 4-O-sulfate]

1: 154; 2: 354

Quick request: mean chromatographic area in plasma, T2 for each listed item, please.
1. COc1cc(C)cc(OC)c1OC [1,2,3-trimethoxy-5-methyl benzene]
2. O=C(O)CCCCCCCCC(=O)O [decanedioic acid isomer 2, decanedioic acid]
3. Oc1cc(O)c2c(c1)O[C@H](c1ccc(O)c(O)c1)[C@H](O)[C@H]2SCc1ccccc1 [4β-benzylthioepicatechin]
4. COc1cc(-c2oc3cc(O[C@@H]4O[C@@H](C)[C@H](O)[C@@H](O)[C@H]4O)cc(O)c3c(=O)c2O[C@@H]2O[C@H](CO)[C@@H](O)[C@H](O)[C@H]2O)ccc1O

1: 105; 2: 26; 3: 151; 4: 14

Source listed as paper PMC11544713.
